# ASSAY PROTOCOL: yeast display, Sf9 membrane polyspecificity reagent, FACS + sequencing; frameworks hold sequencing errors

BIOPOLYMER SEQUENCE: QVQLVESGGGLVQAGGSLRLSCAASGSIFEVYAMGWYRQAPGKERELVAAIDYSDGTTYYADSVKGRFTISRDNAKNTVYLQMNSLKPEDTAGYYCAADFPGQHYDYWGQGTQVTVSS
polyreactivity (PSR sort gate): low polyreactivity
--
BIOPOLYMER SEQUENCE: QVQLVESGGGLVQAGGSLRLSCAASGSIFISYARGWYRQAPGKERELVAAITWSGDSTYYADSVKGRFTISRDNAKNTVYLQMNSLKPEDTAVYYCAADWYFRNQRGYYWGQGTQVTVSS
polyreactivity (PSR sort gate): low polyreactivity
--
BIOPOLYMER SEQUENCE: QVQLVESGGGLVQAGGSLRLSCAASGSTLGGYAMGWYRQAPGKERELVAAISGSRGSTYYADSVKGRFTISRDNAKNTVYLQMTSLKPEDTAVYYCAAGSYWVQYQYDYWGQGTQVTVSS
polyreactivity (PSR sort gate): low polyreactivity
--
BIOPOLYMER SEQUENCE: QVQLVESGGGLVQEGGSLRLSCAASGGTFWLYTMGWYRQAPGKERELVAAITKSGGSTYYADSVKGRFTISRDNAKNTVYLQMNSLKPEDTAVYDCAARYSVYRDGYYWGQGTQVTVSS
polyreactivity (PSR sort gate): high polyreactivity
--
BIOPOLYMER SEQUENCE: QVQIVESCGGLFQAAGRLRLICADSRSIFSYNAMGWYRQAPGKERELVAAITSGGRTYYADSVKGRFTISRDNAKNTVYLQMNSLKPEDTGVYYCAAYQTGLHGFYSWGQGTQVTVSS
polyreactivity (PSR sort gate): high polyreactivity

* * *

# ASSAY PROTOCOL: yeast display, Sf9 membrane polyspecificity reagent, FACS + sequencing; frameworks hold sequencing errors

BIOPOLYMER SEQUENCE: QVQLVESGGGLVQAGGSLRLSCAASGRTFPGYTMGWSRQAPGKERELVAAISYSGGSTYYADSVKGRFTISRDNAKNTVYLQMYSLKPEDTAVYYCAAAYDRQRRYSWVGERYYWGQGTQVTVSS
polyreactivity (PSR sort gate): high polyreactivity
//
BIOPOLYMER SEQUENCE: QVQIVESGGGLVQAGGSLRLRCAASGSISGRNGMGWYRQAPGKERELVAAISTSGASTYYADSVKGRFTISRDNSKNTVYLQMNSLKTEDTAGYYCARLWGRRGYGYWGQGTQVTVSS
polyreactivity (PSR sort gate): high polyreactivity

* * *

# ASSAY PROTOCOL: yeast display, Sf9 membrane polyspecificity reagent, FACS + sequencing; frameworks hold sequencing errors

BIOPOLYMER SEQUENCE: QVQHVESGGGLVQAGGSLRLSCAASGYIFVRNAMGWYRQAPGKERELVAAISGSGGSTYYADSVKGRFTISRDNAKNTVYLQMNSLKPEDTAVYYCAADYATVTWRGIAYDYWGQGTQVTVSS
polyreactivity (PSR sort gate): low polyreactivity

BIOPOLYMER SEQUENCE: QVQLVESGGGIVQAGGSLRLSCAASGRIFTRNAMGWYRQAPGKERELVAAISYSGGTTYYADSVKGRFTISRDNAKNTVYLQMNSLKPEDTAVYYCAALRPTQRYFTYDYWGQGTQVTVSS
polyreactivity (PSR sort gate): high polyreactivity

BIOPOLYMER SEQUENCE: QVQLVESGGGLVQAGGSLRLSCAASGLTFEWYPMGWSRQAPGKERELVAAITTGGTTNYADSVKGRFTISRDNAKNTVYLQMISLKPEDTAVYYCARLYRSGYEYWGQGTHVTVSS
polyreactivity (PSR sort gate): low polyreactivity

BIOPOLYMER SEQUENCE: QVQLVESGGGLVQAGGSLRLSCAASGITFGYYAMGWYRQAPGKERELVATITDGGGTKYADSVKGRFTISRDNAKNTVYLQINSLKPEDTAVYYCAAGLRHVYATEYDYWGQGTQVTVSS
polyreactivity (PSR sort gate): low polyreactivity

BIOPOLYMER SEQUENCE: QVQLVESGGGLVQAGGSLRLSCAASGSTFYKYDMGWYRQAPGKEREFVAVISWSGGNTYYADSVKGRFTISRDNAKNNVYLQMNSLKPEDTAVYYCAADNYPDEYDYWGQGTQVTVSS
polyreactivity (PSR sort gate): low polyreactivity

BIOPOLYMER SEQUENCE: QVQLVESGGGLVQPGGSLRLSCAASGRIFKRNAMGCYRQAPGKERELVAAITWRGGSTYYADSVKGRFTISRDNAKNTVYLQMKSMKPEDTAVYYCNVGYGGSSDGGYDYWGHGTQVTVSS
polyreactivity (PSR sort gate): high polyreactivity

BIOPOLYMER SEQUENCE: QVQLVESGGGLVQAGGSLRLSCAASGFIDAYTMGWYRQAPGKERELVAAMTWSGGRTYYADSVKGRFTISRDNAKNTVYLQLYSLKPEDTAVYYCAKDVTPYSPDDDYWGQGTQVTVSS
polyreactivity (PSR sort gate): low polyreactivity

BIOPOLYMER SEQUENCE: QVQLVESGGGLVQAGGSLRLSCAASGSIFWDNAMGWYRQAPGKERELVAAITSSGDTTYYADSVKGRFTISRDNAKNTVYVQMNSLKPEDTAVYYCAKVFGPTDYLTGTFKGDYWGQGTQVTVSS
polyreactivity (PSR sort gate): low polyreactivity

BIOPOLYMER SEQUENCE: QEQLQESGGGLVHAGGSLRLSCAASGSISQAWYMGWYRQAPGKERELVAAINGGAITYYADSVKGRFSISRDNAKNTVYLPMNSLTPEDTAVYYCAVDQYSEAYYDYWGQGTQATVSS
polyreactivity (PSR sort gate): high polyreactivity

BIOPOLYMER SEQUENCE: QVQLVESGGGLVQAGGSLRLSCAASGFIFYYYTMGWYRQEPGKEREFVAAITYSGGRTYYADSVKGRFTISRDNAKNTVYLQMNSLKPEDTAVYYCAVALFETGHYYWGQGTQVTVSS
polyreactivity (PSR sort gate): high polyreactivity

BIOPOLYMER SEQUENCE: QVQLVESGGGLVQAGGSLRLSCAASGIIFGRYAMGWYRQAPGKERELVAAITWSGGGTYYADSVKGRFTISRDNAKNTVYLQMNSLKPEDTAVYYCAARTTPHWGYVSTNYWGQGTQVTVSS
polyreactivity (PSR sort gate): low polyreactivity

Reference source: the nanobody polyreactivity screen of Harvey et al. (2022)
